value_kind: melting point

Ask | Request the reported melting point associated with O=C(NC1CCCc2cc(C(=O)O)ccc21)OCc1ccccc1 (configuration not stated)
Reply | 203 to 205 °C

Ask | What about Cc1noc(C(=O)NC(C)C)c1C(=O)O ?
Reply | 86 to 92 °C

====

Measured melting point by item

smiles_record	measurement
Fc1cc2c(Nc3ccc(Br)c(Br)c3)ncnc2cn1	262 to 264 °C
COc1ccc2[nH]c3c(C)c4ccnc(NC5CC(C)(C)NC(C)(C)C5)c4cc3c2c1	223 to 225 °C
O=c1[nH]c(=O)n(CCCCN2CCC(OC(c3ccccc3)c3ccccc3)CC2)c2ccc(Cl)cc12	209 to 210 °C
Cc1ccc2ccc3c(c2c1)CC(=O)O3	170 to 171 °C

For the next question, use this molecule.
Ask | Request the reported melting point associated with COCCOCCn1cc(C(=O)NCc2ccc(Cl)cc2)c(=O)c2cc(CO)ccc21
Reply | 161 to 162 °C

====

value_kind: melting point

Record excerpt, results attached:
compound	melting point
CCOC(=O)C(N=C(c1ccccc1)c1cc(Cl)ccc1NC)C(=O)OCC	88 °C
CCOC(=O)c1ccc(SC)c(Cl)c1N(CC)S(C)(=O)=O	70.5 to 73.5 °C
CC(=O)OCC[C@H](NC(=O)C(F)(F)F)C(=O)O	134 to 136 °C

Ask | Request the reported melting point associated with Cc1cc(Oc2ncc(C(F)(F)F)cc2Cl)nn1C(=O)Nc1ccccc1
Reply | 116 to 118 °C

Ask | What about Nc1ccc(OCc2c(Cl)cccc2Cl)cc1[N+](=O)[O-] ?
Reply | 155 °C

Ask | What about Cc1nc2c(OCc3c(Cl)ccc(N(C)C(=O)CNC(N)=O)c3Cl)cccn2c1Br ?
Reply | 147 to 149 °C

Ask | What about Fc1ccccc1N1CCN(CCCCNc2ccc(-c3ccccc3)cn2)CC1 ?
Reply | 95 °C

Ask | What about Cc1cnc2c(c1)CCCC2S(=O)(=O)c1ccccc1 (stereo unspecified) ?
Reply | 84 to 86 °C

Ask | What about CC(OS(C)(=O)=O)c1ccc([N+](=O)[O-])cc1 (stereo unspecified) ?
Reply | 70 °C

Ask | What about COc1ccc(C(=O)C(=O)NC(C)C)s1 ?
Reply | 72 to 73 °C

====

value_kind: melting point

compound	melting point
CNC1N=CN(c2c(C)cccc2Cl)C(=O)N1 (configuration not stated)	254 to 256 °C
COC(=O)c1c(CC(C)C)nc2ccc(Cl)cc2c1-c1ccccc1	111 to 112 °C
COc1ccc2c(c1)C1=C(SCC3(CCN(CC(O)Cc4ccccc4)CC3)O1)C(=O)C2=O (configuration not stated)	106 °C
CC(C)(C)c1cc(SC(Sc2cc(C(C)(C)C)c(O)c(C(C)(C)C)c2)c2cc(C(C)(C)C)c(O)c(C(C)(C)C)c2)cc(C(C)(C)C)c1O	175 to 177 °C
OCC1(c2ccccc2)CCN(Cc2ccccc2)CC1	127 °C

Ask | Request the reported melting point associated with O=S(=O)(F)C=CNc1ccc(C(F)(F)F)cc1
Reply | 71 to 73 °C

Ask | What about O=C1CCCc2c1ccc(O)c2CCc1ccccc1 ?
Reply | 185 to 188 °C

====

value_kind: melting point

Record excerpt, results attached:
smiles_record	value_kind	measurement
Cc1c(CON2C(=O)c3ccccc3C2=O)ncn1C(c1ccccc1)(c1ccccc1)c1ccccc1	melting point	220 to 223 °C
CCc1[nH]n(C2CCCC2)c2nc(-c3ccc(OCCCN(C)C)cc3)nc(=O)c1-2	melting point	175 to 178 °C
CCCCCc1ccc(S(=O)(=O)n2c(CCC(=O)O)cc3cc(Cl)ccc32)cc1	melting point	131 to 134 °C

Ask | Request the reported melting point associated with O=C(Nc1ccc(CCCc2nnn[nH]2)cc1)C(F)(F)C(F)(F)C(F)(F)C(F)(F)C(F)(F)C(F)(F)C(F)(F)F
Reply | 170 to 172 °C

====

value_kind: melting point

Record excerpt, results attached:
compound	value_kind	measurement
COC(=O)C=C1C[N+]([O-])=C(c2ccccc2)c2cc(Cl)ccc2N1	melting point	215 to 216 °C
NS(=O)(=O)c1cc(C(=O)O)cc([N+](=O)[O-])c1Sc1ccccc1	melting point	245 to 247 °C
Cc1cccc(-c2n[nH]cc2-c2ccc(F)c(-c3ccc(O)cc3)c2)n1	melting point	72 to 74 °C
Cn1c(=O)n(C)c2cc3c(N4CCN(C(=O)Nc5ccc(Oc6ccccc6)cc5)CC4)ncnc3cc21	melting point	250 to 255 °C

For the next question, use this compound.
Ask | Request the reported melting point associated with CCCC(C(=O)OCC)n1cnc(C(N)=O)c1 (stereo not given)
Reply | 95 °C

====

value_kind: melting point

Record excerpt, results attached:
molecule	measurement
CON=C(C(=O)OC)c1ccccc1Oc1ccccc1	109 to 110 °C
Cc1cc(-c2cc(C(F)(F)F)nn2-c2ccc(S(C)(=O)=O)cc2)ccc1-c1cocn1	148 to 150 °C

Ask | Request the reported melting point associated with CCC(=O)c1cccc2cccc(O)c12
Reply | 114 to 117 °C

Ask | What about CCOC(=O)c1nn(-c2ccc(OC(F)F)cc2)c2cccc(Cl)c2c1=O ?
Reply | 134 °C

Ask | What about CC(F)=C1CCC2C3CC=C4CC(O[Si](C)(C)C(C)(C)C)CCC4(C)C3CCC12C (stereo not given) ?
Reply | 128 to 130 °C

Ask | What about Cc1nc(C(C)O)c[nH]1 (stereo not given) ?
Reply | 107 to 111 °C

Ask | What about Cc1c(C(=O)OC(C)C)ncc2[nH]c3cccc(Oc4ccc(Cl)cn4)c3c12 ?
Reply | 243 to 245 °C

Ask | What about O=C1CCCc2[nH]c(=O)ccc21 ?
Reply | 302 to 303 °C

Ask | What about COc1ccc(CN(C(=O)C2CCOc3c(O)cccc32)c2ccc(C(C)C)cc2)cn1 (stereo not given) ?
Reply | 141 °C

Ask | What about OC1CSC(Oc2cnccc2-c2ccc(F)cc2)C(O)C1O (stereo not given) ?
Reply | 219 °C

====

Measured melting point by item

Record excerpt, results attached:
molecule	value_kind	measurement
COC(=O)c1c(C(=O)OC)c2sc3ccccc3n2c1-c1ccc(Cl)cc1	melting point	172 to 173 °C
CC(=O)NC1CC(C)(C)N(OC2CCCCC2)C(C)(C)C1	melting point	140 to 144 °C
CCN1C(=O)CCCc2ccc(Nc3ncc(Br)c(Nc4c(F)cccc4C(=O)NC)n3)cc21	melting point	231 to 232 °C
CCOC(=O)c1c(-c2ccccc2)csc1N1C(=O)c2ccccc2C1=O	melting point	163 to 164 °C
c1ccc(CN2CC3(COc4cc5c(cc43)CCO5)c3c(-c4cccnc4)cccc32)nc1 (stereo not given)	melting point	> 200 °C

Ask | Request the reported melting point associated with Clc1ccc(-c2cc(Cl)n3nccc3n2)cc1
Reply | 133 to 135 °C

Ask | What about CC(C)CCOc1ccc(C(=O)C(O)O)cc1 ?
Reply | 80 to 85 °C

Ask | What about COc1ccc2c(=O)nc(-c3ccccn3)sc2c1 ?
Reply | 200 to 202 °C

Ask | What about CCCCCCCCCCCCCCCCCCOc1cc(C(=O)OC)cc(C(=O)OC)c1 ?
Reply | 54 to 55 °C

Ask | What about CC(C)c1nn(-c2nc3ccccc3s2)c(-c2ccc(F)cc2)c1Br ?
Reply | 146 to 147 °C

====

value_kind: melting point

compound	melting point
CC(=O)N1CCC(NC(=O)Nc2ccccc2CCc2cc(C(C)(C)C)c(O)c(C(C)(C)C)c2)CC1	218 to 221 °C
COC(=O)C1=C(SC)N(c2ccc(Cl)cc2Cl)CCC1	83 to 86 °C
Cc1cc(Cl)nn2c(-c3ccnc4c3ccn4S(=O)(=O)c3ccccc3)c(-c3ccc(F)cc3)nc12	226 to 228 °C
O=Cc1cc2cc(Cl)ccc2nc1Cl	188 to 190 °C
COc1ccc2c(c1)[C@@]1(C(=O)O)CC=CC[C@H]1CC2 (relative stereo)	125 °C

Ask | Request the reported melting point associated with COc1cccc(-c2c(NC(=O)Nc3c(C(C)C)cccc3C(C)C)c(=O)n(CCOc3ccccc3)c3ncccc23)c1
Reply | 168 to 170 °C

Ask | What about COC(=O)C[C@H](O)CC(=O)C=Cc1c(-c2ccc(F)cc2)c(-c2ccc(F)cc2)c(C(=O)Nc2ccc(S(N)(=O)=O)cc2)n1C(C)C ?
Reply | 109 to 110 °C

Ask | What about COc1cc(Cl)c(C(=O)Nc2ccc(C(C)(C)C#N)cc2)cc1OC ?
Reply | 142 to 144 °C

====

value_kind: melting point

Record excerpt, results attached:
compound	measurement
Brc1ccc2c(c1)C(c1ccccn1)=CCc1nncn1-2	219 °C
COc1c(N2CCNC(CF)(CF)C2)c(F)cc2c(=O)c(C(=O)O)cn(C3CC3F)c12 (stereo unspecified)	164 to 166 °C
CC(=O)NCCCCC(NC(C)=O)C(=O)O (racemic)	138 to 139 °C
CC#CCOc1cc(-c2ccc(F)cc2F)ncn1	63.9 °C
C[Si](C)(C)c1ccc2cc(C(=O)Nc3cnc4sc(CO)nc4c3)n(Cc3nccs3)c2c1	219 to 220 °C
CC(C)C1(C)N=C(c2ncc(C3OCCCCO3)cc2C(=O)O)NC1=O (stereo unspecified)	60 to 69 °C
CCn1nc(O)nc1Cl	108 to 110 °C
C[C@H](Nc1nc(Cl)nc(Cl)n1)c1ccccc1	146 to 147 °C

Ask | Request the reported melting point associated with N=C(Nc1ccc2ccncc2c1)c1cccs1
Reply | 178 °C

Ask | What about CC(c1ccc(C(F)(F)F)cc1[N+](=O)[O-])[N+](=O)[O-] (stereo unspecified) ?
Reply | 48 °C

Ask | What about CCOC(=O)C1(I)C=CC(c2ccccc2)=CC1 (stereo unspecified) ?
Reply | 105 to 106 °C

Ask | What about Cc1ccc(-c2nccc(-c3cccc(C(=O)O)c3)n2)cc1 ?
Reply | 225 to 226 °C
